Entry source: PubChem BioAssay (NCI)

Give GI50 for every item shown.
tested on: NCI-H226 lung; assay: NCI tumour cell line growth inhibition, 48 h

Completed entries (count: 3):
Indicate the recorded GI50 value for this compound: "Cc1ccncc1C(N)=O"
> 100 µM

Indicate the recorded GI50 value for this compound: "O=Nc1c(-c2c(O)[nH]c3ncccc23)[nH]c2ccccc12"
15.3 µM

Indicate the recorded GI50 value for this compound: "COc1cc(C(=O)Nc2cc(O)c(CC=C(C)C)c(O)c2)cc2c1O[C@]1(C)CC[C@@H](O)C(C)(C)[C@H]1C2"
3.04 µM

The following compounds each have a reported value; give each one's GI50.
1. Cc1[nH]c(-c2cc(N)ccc2Cl)c2c1C(=O)CCCC2
2. c1cc(N2CCN(c3ccc(C4=NCCCN4)cc3)CC2)ccc1C1=NCCCN1
3. O=C(Nc1ccccc1OC(=O)c1ccccc1)c1ccccc1

1. 3.37 µM
2. 59.3 µM
3. > 100 µM

* * *

test system: M14 melanoma; experiment: NCI tumour cell line growth inhibition, 48 h
Quantity measured: TGI

Completed entries (count: 5):
Write down measured TGI (M14 melanoma) for this compound. "O=C1Cc2c([nH]c3ccc(C(=O)O)cc23)-c2ccccc2N1"
> 100 µM

Write down measured TGI (M14 melanoma) for this compound. "CNNC(=NS(=O)(=O)c1cc(C#N)c(NNC)cc1S)NNC"
> 10 µM

Write down measured TGI (M14 melanoma) for this compound. "Clc1ccc2oc(CCc3ccccc3)nc2c1"
> 100 µM

Write down measured TGI (M14 melanoma) for this compound. "O=C(O)CCNS(=O)(=O)c1ccc([N+](=O)[O-])cc1"
> 100 µM

Write down measured TGI (M14 melanoma) for this compound. c1ccc(CC2COC(c3cccs3)=N2)cc1 (stereo not given)
> 100 µM

The following compounds each have a reported value; give each one's TGI.
1. CN(C)CCNC(=O)c1cccc2c(NC(CCC(N)=O)C(=O)O)c3ccccc3nc12 (stereo not given)
2. CCCc1[nH]c2ccccc2c1-c1c(CCC)[nH]c2ccccc12
3. Cc1cccc(NC(=O)/C(=N\N)C(c2cnc3ccc([N+](=O)[O-])cc3n2)[N+](=O)[O-])c1C (stereo not given)
4. COc1ccc(NC(=O)C(=O)/C=C(\O)c2ccccc2)cc1
5. CN1CCc2nc3sc(C(N)=O)c(N)c3c(-c3cccs3)c2C1
6. Cc1cc2c(c(C(N)=O)c1C)-c1cc(Cl)cc(Cl)c1C2=O
7. N#CCCC1(CCC#N)CCCCCCCCC(CCC#N)(CCC#N)C(O)C1O (stereo not given)
8. CCC1C(c2ccccc2O)c2cc3c(cc2OC1N1CCOCC1)OCO3 (stereo not given)

1: 27.5 µM; 2: 27.9 µM; 3: > 100 µM; 4: > 10 µM; 5: 19.4 µM; 6: > 100 µM; 7: > 100 µM; 8: 30.6 µM

* * *

Give TGI for every item shown.
test system: MDA-MB-231 breast; experiment: NCI tumour cell line growth inhibition, 48 h

Completed entries (count: 2):
Indicate the recorded TGI value for this molecule: "COc1cccc(/N=N/C(=NNC(=O)c2ccc(C)cc2)c2ccc(N(C)C)cc2)c1"
> 100 µM

Indicate the recorded TGI value for this molecule: "CC(C)C[C@H](NC(=O)CCn1ccc2ccccc2c1=O)B(O)O"
59.3 µM

The following molecules each have a reported value; give each one's TGI.
1. CC1(C)CC(=O)c2c(nc3c4c([nH]c(-c5ccc(Br)cc5)c24)CC(C)(C)C3)C1
2. CCCc1[nH]c2ccccc2c1-c1c(CCC)[nH]c2ccccc12
3. COc1cc(Oc2nc3ccc(C(F)(F)F)cc3nc2-c2ccccc2)cc(OC)c1OC
4. C[C@@H]1Cc2cc(O)ccc2[C@H]2CC[C@]3(C)/C(=C/COCCN(C)C)CC[C@H]3[C@H]12 (tested in a mixture with another compound)
5. C=C1CC[C@@H](C)[C@](C)(CCc2ccoc2)C/C=C\C=C/1C(=O)O
6. COc1cc2c3c([nH]c2c(OC)c1OC)CCN(Cc1ccccc1)C3
7. COc1ccc2c3c1O[C@H](c1ccc(O)cc1)[C@H]3[N+](C)(C)CC2

1: > 100 µM; 2: 38.6 µM; 3: > 100 µM; 4: 3.15 µM; 5: > 100 µM; 6: > 100 µM; 7: > 100 µM

* * *

Give GI50 for every item shown.
system: MDA-MB-231 breast; assay: NCI tumour cell line growth inhibition, 48 h

Indicate the recorded GI50 value for this molecule: "c1cc(N2CCN(c3ccc(C4=NCCCN4)cc3)CC2)ccc1C1=NCCCN1"
> 62600 nM

The following molecules each have a reported value; give each one's GI50.
1. C[CH2][Hg][S]c1ccccc1C(=O)O
2. CCOC(=O)c1cc2c(cc1Cl)SC(=Nc1ccccc1)N(S(=O)(=O)c1ccc(Br)s1)S2(=O)=O
3. COc1ccc(Nc2ccnc(N3CCN(c4ccnc5cc(Cl)ccc45)CC3)n2)cc1
4. O=Nc1c(-c2c(O)[nH]c3ncccc23)[nH]c2ccccc12

["1260 nM", "14100 nM", "1510 nM", "16000 nM"]

The following molecules each have a reported value; give each one's GI50.
1. C[C@@H]1Cc2cc(O)ccc2[C@H]2CC[C@]3(C)/C(=C/COCCN(C)C)CC[C@H]3[C@H]12 (tested in a mixture with another compound)
2. COc1ccc(Nc2ccc([N+](=O)[O-])cc2[N+](=O)[O-])cc1CN(CCCl)CCCl
3. CC1C=CC(OC(=O)C(C)(O)CCC(O)(C(=O)OC2CC(O)C(C(C)C)CC2(C)O)C(C)C)(C(C)C)CC1 (stereo not given)
4. Cc1ccncc1C(N)=O
5. CCc1c(C)nc2sc3c(N)ncnc3c2c1C

1: 833 nM; 2: 2690 nM; 3: 656 nM; 4: > 100000 nM; 5: > 25000 nM

* * *

system: CCRF-CEM leukemia; assay: NCI tumour cell line growth inhibition, 48 h; in the data active means GI50 below about 0.43 µM; inactive means the rest
Write down one outcome, taken from active, inactive

Returns: the outcome recorded for "COc1cc2c(cc1F)C(c1ccccc1Cl)=Nc1c(n[nH]c1C)N2" in this assay.
inactive

Returns: the outcome recorded for C[C@@H]1Cc2cc(O)ccc2[C@H]2CC[C@]3(C)/C(=C/COCCN(C)C)CC[C@H]3[C@H]12 (tested in a mixture with another compound) in this assay.
active

Next:
Returns: the outcome recorded for "COc1cc(C(=O)Nc2cc(O)c(CC=C(C)C)c(O)c2)cc2c1O[C@]1(C)CC[C@@H](O)C(C)(C)[C@H]1C2" in this assay.
active

Returns: the outcome recorded for "Fc1ccc(/C=N/n2c(-c3ccc(F)c(Cl)c3)n[nH]c2=S)cc1" in this assay.
inactive

Returns: the outcome recorded for N/C(=N\OC(=O)c1ccccc1)C(Cc1ccccc1)C(=O)NOC(=O)c1ccccc1 (configuration not stated) in this assay.
inactive

Returns: the outcome recorded for "COC(=O)c1cc(-c2ccc(OC)c(OC)c2)[nH]c1N/N=C/c1c(Cl)cccc1Cl" in this assay.
active

Returns: the outcome recorded for Cc1cc(C)c(C2CNCc3cc4c(cc32)CNCC4c2c(C)cc(C)cc2C)c(C)c1 (configuration not stated) in this assay.
inactive

Returns: the outcome recorded for "C[n+]1c2ccccc2nc2c(N)cc(N)cc21" in this assay.
inactive

Returns: the outcome recorded for "O=C(Nc1ccccc1OC(=O)c1ccccc1)c1ccccc1" in this assay.
inactive

Returns: the outcome recorded for "COc1cc2cc(Oc3ccc(NC(=O)c4ccc(Cl)c(Cl)c4)cc3)c(C)nc2cc1OC" in this assay.
inactive

Returns: the outcome recorded for "CCOC(=O)c1cc2c(cc1Cl)SC(=Nc1ccccc1)N(S(=O)(=O)c1ccc(Br)s1)S2(=O)=O" in this assay.
inactive

Returns: the outcome recorded for "COc1cccc(Oc2ccccc2NC(=O)CNC(=O)c2cccc3ccccc23)c1" in this assay.
active

* * *

tested on: NCI-H23 lung; test: NCI tumour cell line growth inhibition, 48 h
Assign T whenever TGI does not fall below 20 µM; assign F whenever it does.

Previously resolved entries follow.
Dear colleague, could you confirm whether N/C(=N\OC(=O)c1ccccc1)C(Cc1ccccc1)C(=O)NOC(=O)c1ccccc1 (stereo not given) has TGI at or above 20 µM?
F

Dear colleague, could you confirm whether "O=C(/C=C/c1ccc(Cl)c(Cl)c1)c1cccc2ccccc12" has TGI at or above 20 µM?
T

Dear colleague, could you confirm whether O=C1c2ccccc2N2OC3(N4CCCC4)CCCCC3C12c1ccccc1 (stereo not given) has TGI at or above 20 µM?
T

Dear colleague, could you confirm whether "COc1ccc(-c2cc(=O)c3c(O)cccc3o2)c(OC)c1OC" has TGI at or above 20 µM?
T

Now for another entry.
Dear colleague, could you confirm whether "O=c1[nH]nc(-c2ccccc2)n1O" has TGI at or above 20 µM?
T

* * *

system: OVCAR-3 ovarian; assay: NCI tumour cell line growth inhibition, 48 h
Assign MET whenever TGI does not fall below 7 µM; assign NOT MET whenever it does.

Previously resolved entries follow.
Dear colleague, could you confirm whether "C[CH2][Hg][S]c1ccccc1C(=O)O" has TGI at or above 7 µM?
NOT MET

Dear colleague, could you confirm whether "O=C(NCCNCCO)c1cccc2ccc(-c3ccccc3)nc12" has TGI at or above 7 µM?
MET

Dear colleague, could you confirm whether "COc1cc2c(cc1F)C(c1ccccc1Cl)=Nc1c(n[nH]c1C)N2" has TGI at or above 7 µM?
MET

Dear colleague, could you confirm whether "c1ccc(N=C2c3ccsc3C(=Nc3ccccc3)c3ccsc32)cc1" has TGI at or above 7 µM?
NOT MET

Dear colleague, could you confirm whether "CC(C)C[C@H](NC(=O)CCn1ccc2ccccc2c1=O)B(O)O" has TGI at or above 7 µM?
NOT MET

Next:
Dear colleague, could you confirm whether Cn1c(=O)n2n(c1=O)C(C)(C13CC4CC(CC(C4)C1)C3)C13CC4CC(CC1C4)CC23 (stereo unspecified) has TGI at or above 7 µM?
MET
